- Tested on: LXRb:RXRa (NR concentration 270 nM, RXRa partner concentration 90 nM)
- Measurement protocol: PBM binding z-score (relative to random genomic background probes); higher = stronger binding; sequences stand for … in GC…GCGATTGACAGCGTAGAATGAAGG
For each entry below, report its PBM binding z-score value.
Just the number, please, no unit attached.

Which PBM binding z-score reading was recorded for the sequence `AGAACGAGGGCAGGCTGAGTTGATAGCAGAGTAG` ?
-0.676

Which PBM binding z-score reading was recorded for the sequence `TCATATACGTAAATGCTAGGTGAAAGTCCGATCT` ?
0.861

Which PBM binding z-score reading was recorded for the sequence `CCAGACAGGTGAGAAGGTAAATCAGCCTCGATTA` ?
0.141

Which PBM binding z-score reading was recorded for the sequence `TATACAGGGTCAAAGTCCAGAGTACGAATGTCGA` ?
5.33

Which PBM binding z-score reading was recorded for the sequence `GCTGCTAGGTCAACAGATGGTCAGCTAAAGCTCG` ?
1.37

Which PBM binding z-score reading was recorded for the sequence `CAAACTAGGTCAAGGTCATAGTCGGTTTGTGCCA` ?
4.11

Which PBM binding z-score reading was recorded for the sequence `ACTATTAGTTGACTTAGGCCAACCGATACGACGC` ?
0.209

Which PBM binding z-score reading was recorded for the sequence `ATATCTAGGTAACAAGTTCAGTGAAAGAGAGGAC` ?
0.857

Which PBM binding z-score reading was recorded for the sequence `GCGACTGGAGCATCAGCAGGTTACCATAACTTAA` ?
-0.376

Which PBM binding z-score reading was recorded for the sequence `ATCTCTACGTAAGACTCAGTTCAGTGAAGAACGC` ?
0.484

Which PBM binding z-score reading was recorded for the sequence `TAGCCTAGGTCATTGGGCCATTATAGTACGCATC` ?
2.84

Which PBM binding z-score reading was recorded for the sequence `TTACCAAGGTGAAAGGTCGTCGATGCACGCCTTG` ?
2.77

Which PBM binding z-score reading was recorded for the sequence `TAGCCTAGATCATTGGGCCAGTATAGTACGCATC` ?
-0.649

Which PBM binding z-score reading was recorded for the sequence `AGAACGAGGGCATTGAGTTGATAGCACGGGTGGC` ?
0.0744

Which PBM binding z-score reading was recorded for the sequence `CCGACTTGGGCAGAAAGGTTACCATACCATCCGG` ?
0.646

Which PBM binding z-score reading was recorded for the sequence `TCTTGTAGATCAATAGAGGTTGAGAAAGTGCGCT` ?
0.212

Which PBM binding z-score reading was recorded for the sequence `CCTCGGAGGACAGTAGGTCAGAGCTGTCCGCTTT` ?
-0.0579

Which PBM binding z-score reading was recorded for the sequence `TCTCGGAGGACACGATGGTCAGAGCTTTCCAGAG` ?
-0.381

Which PBM binding z-score reading was recorded for the sequence `CCGACTGGGGCAGAGAGGTTACCATACCATCCGG` ?
0.271

Which PBM binding z-score reading was recorded for the sequence `GCTTACGGGTCAGAGGTTATAGCATGAATAGAAT` ?
3.77

Which PBM binding z-score reading was recorded for the sequence `TCGAGTAGGTTACCACTGGGGCATTCAGCTTTCT` ?
0.314

Which PBM binding z-score reading was recorded for the sequence `GCGACTGGGGCATCAGCAGTTTACCATAACTTAA` ?
0.505

Which PBM binding z-score reading was recorded for the sequence `AGTCAAAGTTCATCTAAGTAACGTAAGATATGCT` ?
3.59

Which PBM binding z-score reading was recorded for the sequence `TGTCAAAGTTCAAAAGTAACGTAAGTATCCACAC` ?
4.04

Which PBM binding z-score reading was recorded for the sequence `CCAGACAGGTGACAGGTAACTCAGTCTGGTACGC` ?
-0.0936

Which PBM binding z-score reading was recorded for the sequence `TCGATTAGTTGAAGGGCAACCGACGAGTCCGTTT` ?
0.106

====

- Tested on: PPARg:RXRa 270nM:90nM, anti-RXR (NR concentration 270 nM, RXRa partner concentration 90 nM)
- Measurement protocol: PBM binding z-score (relative to random genomic background probes); higher = stronger binding; sequences stand for … in GC…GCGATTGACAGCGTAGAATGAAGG
Metric name: PBM binding z-score
Just the number, please, no unit attached.

Which PBM binding z-score reading was recorded for the sequence `TCATATAGGTAAAGGGTGAAAGTCGGTGTGGTAA` ?
7.21

Which PBM binding z-score reading was recorded for the sequence `ATATGTAGGTTATAGGGTCATTCAGTTTGCGCAT` ?
7.04

Which PBM binding z-score reading was recorded for the sequence `CCTATTAGATGACCATAAGGGCAACCGAAGCTCG` ?
0.324

Which PBM binding z-score reading was recorded for the sequence `CAAACTAGGCCACGAAAGGTCAAAGTCGAATGAC` ?
6.7

Which PBM binding z-score reading was recorded for the sequence `TGAATGAGGTTAAAGATCTGGGAACGTGGCGTCG` ?
3.6

Which PBM binding z-score reading was recorded for the sequence `ATCTCTAAGTAACAAGTTCAGTGAAAGAGAGGAC` ?
0.672

Which PBM binding z-score reading was recorded for the sequence `CGAAGTAGGTCAAGGACAGTGAATCTCCGCACGC` ?
6.95

Which PBM binding z-score reading was recorded for the sequence `TAGCCTAGATCATTCAGGGGCCAGTATAGAAAGC` ?
0.125

Which PBM binding z-score reading was recorded for the sequence `TAGCCTTGGTCATGGGCCAGTATACCACGCGAAC` ?
-0.0225

Which PBM binding z-score reading was recorded for the sequence `GCTGCTAGGTCTGGTTGGTCAGCTAACGGGTACG` ?
-0.447

Which PBM binding z-score reading was recorded for the sequence `GCCACTGGGGCATCAGCAGGTTACCATAACTTAA` ?
1.82

Which PBM binding z-score reading was recorded for the sequence `GCGACTGGGGAAAAGCAGGTTACCATAAGGTTGG` ?
0.154

Which PBM binding z-score reading was recorded for the sequence `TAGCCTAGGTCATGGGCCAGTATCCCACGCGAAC` ?
3.41

Which PBM binding z-score reading was recorded for the sequence `GATACAGGGTCAGCCAGAGGCCAGAGTATGGAAA` ?
3.7

Which PBM binding z-score reading was recorded for the sequence `ATCTCTAGGTAAAGATAGTTCAGTGAGTGCAAAT` ?
0.661

Which PBM binding z-score reading was recorded for the sequence `CCAGACGGGTGAGAAGGTAACTCAGCCTCGATTA` ?
0.0448

Which PBM binding z-score reading was recorded for the sequence `CGAACTAGGTCATGGACAGGACAGTGAATAGTAA` ?
6.56

Which PBM binding z-score reading was recorded for the sequence `CCTGCTAGGTCCTGGTCAGCTAATCTACAGTATG` ?
-0.442

Which PBM binding z-score reading was recorded for the sequence `ATATGTAGCTTATCGGGTCATTCAGTTTGCGCAT` ?
0.994

Which PBM binding z-score reading was recorded for the sequence `ACTAGCAGACCAAGGGTCACTCAAGATTAGTCCG` ?
5.53

Which PBM binding z-score reading was recorded for the sequence `TAGCCTAGGTCATGGGGCAGTATACCACGCGAAC` ?
4.52

Which PBM binding z-score reading was recorded for the sequence `TCATAGAGGTAAAGGTGAAAGTCGAACGATATGA` ?
5.04

Which PBM binding z-score reading was recorded for the sequence `TGAATGAGGTTAAAGAACAGGGAACGTGGCGTCG` ?
3.32

Which PBM binding z-score reading was recorded for the sequence `CGTCCAACGTCAATGCTAGGTCAGTGAAAGCATT` ?
-0.424

Which PBM binding z-score reading was recorded for the sequence `ACTCGGAGGACAAAGGTCAAAGCTACGCCAGTGA` ?
7.42

Which PBM binding z-score reading was recorded for the sequence `CAAACTTGGTCACCGGAAGGTCAAAGTCCGCATG` ?
3

====

- Tested on: RARg:RXRa (NR concentration 270 nM, RXRa partner concentration 90 nM)
- Measurement protocol: PBM binding z-score (relative to random genomic background probes); higher = stronger binding; sequences stand for … in GC…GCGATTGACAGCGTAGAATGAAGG
Metric name: PBM binding z-score
Just the number, please, no unit attached.

# value lookup — system RARg:RXRa (NR concentration 270 nM, RXRa partner concentration 90 nM), readout PBM binding z-score, item `CGAACGAGGGCATGAGTTGATCGCAAATGCCGAT`
1.04

# value lookup — system RARg:RXRa (NR concentration 270 nM, RXRa partner concentration 90 nM), readout PBM binding z-score, item `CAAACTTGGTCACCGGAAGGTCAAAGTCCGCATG`
5.35

# value lookup — system RARg:RXRa (NR concentration 270 nM, RXRa partner concentration 90 nM), readout PBM binding z-score, item `CAAACTAGGTCACGAAAGGTCAAGGTCGAATGAC`
7.93

# value lookup — system RARg:RXRa (NR concentration 270 nM, RXRa partner concentration 90 nM), readout PBM binding z-score, item `ACAGACAGGTGATGAAGGTAACTCATGCTATCAT`
0.394

# value lookup — system RARg:RXRa (NR concentration 270 nM, RXRa partner concentration 90 nM), readout PBM binding z-score, item `TCTGCTAGGTCAGTTTGTCAGCTAACGAGCTGCC`
1.84

# value lookup — system RARg:RXRa (NR concentration 270 nM, RXRa partner concentration 90 nM), readout PBM binding z-score, item `GCTGCTAGGCCAGGTTGGTCAGCTAACGGGTACG`
-0.5

# value lookup — system RARg:RXRa (NR concentration 270 nM, RXRa partner concentration 90 nM), readout PBM binding z-score, item `GGAACGACGGCAAGTTGATAGCAGAGTTTGATGG`
-0.136

# value lookup — system RARg:RXRa (NR concentration 270 nM, RXRa partner concentration 90 nM), readout PBM binding z-score, item `CGAACTAGGTCGGAACAGGACAGTGAAGGATGAT`
0.399

# value lookup — system RARg:RXRa (NR concentration 270 nM, RXRa partner concentration 90 nM), readout PBM binding z-score, item `ATCTCTAGGTATCAAGTTCAGTGAAAGAGAGGAC`
1.07

# value lookup — system RARg:RXRa (NR concentration 270 nM, RXRa partner concentration 90 nM), readout PBM binding z-score, item `ATCTCTAGGTAAGGCTCAGTTCAGTGAAGAACGC`
0.0838

# value lookup — system RARg:RXRa (NR concentration 270 nM, RXRa partner concentration 90 nM), readout PBM binding z-score, item `TGAATGAGGTTAAAGATCCGGGAACGTGGCGTCG`
1.5

# value lookup — system RARg:RXRa (NR concentration 270 nM, RXRa partner concentration 90 nM), readout PBM binding z-score, item `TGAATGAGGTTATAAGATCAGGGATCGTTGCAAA`
1.33
